tested on: 324938-238-R-J1-PDC complex spheroid growth, % test/control; test: Anticancer human tumor 324938-238-R-J1-PDC patient-derived bladder carcinoma cell line growth inhibition [AhR]; details: second compound 1 µM; first compound 0.1 µM; active compounds read low;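 also: spheroids exposed to agents for seven days before viability read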
reported.endpoint: viability, T/C (%)
Report the figure in % without appending any unit label.

Measured viability, T/C of Nc1ncn(C2CC(O)C(CO)O2)c(=O)n1 (configuration not stated) + Cc1ccccc1N=Nc1ccc(NC(=O)c2ccnn2C)c(C)c1 : 74.7

Record summary for CC1COCCN1c1cc(C2(S(C)(=N)=O)CC2)nc(-c2ccnc3[nH]ccc23)n1 (configuration not stated) + Cc1cncc(-c2nc(NCCc3c[nH]c4ccccc34)c3ncn(C(C)C)c3n2)c1 : reported viability, T/C = 109

viability, T/C in this record for O=C(c1cc(Cc2n[nH]c(=O)c3ccccc23)ccc1F)N1CCN(C(=O)C2CC2)CC1 + Cc1ccccc1N=Nc1ccc(NC(=O)c2ccnn2C)c(C)c1 : 100

So for COc1cc(C2c3cc4c(cc3C(OC3OC5COC(C)OC5C(O)C3O)C3COC(=O)C23)OCO4)cc(OC)c1O (configuration not stated) + Cc1cncc(-c2nc(NCCc3c[nH]c4ccccc34)c3ncn(C(C)C)c3n2)c1 , the logged viability, T/C turned out to be 102

# viability, T/C (compound: COc1cccc2c1C(=O)c1c(O)c3c(c(O)c1C2=O)CC(O)(C(=O)CO)CC3OC1CC(N)C(O)C(C)O1 (configuration not stated) + Cc1cncc(-c2nc(NCCc3c[nH]c4ccccc34)c3ncn(C(C)C)c3n2)c1 ) is 102

viability, T/C for COc1ccc([C@@H](O)c2cc(-c3ncnc4cc(N5CCOCC5)ccc34)c(F)cc2Cl)nn1 + Cc1ccccc1N=Nc1ccc(NC(=O)c2ccnn2C)c(C)c1 is 87.6

GET /value?item= Nc1ccccc1NC(=O)c1ccc(CNC(=O)OCc2cccnc2)cc1 + CC(CO)NC(=O)c1cc(-c2ccc(Cl)cc2)nn(-c2cnn(C)c2)c1=O &field=viability, T/C returns 109

The value of viability, T/C measured for the compound CC1(C)CCC(CN2CCN(c3ccc(C(=O)NS(=O)(=O)c4ccc(NCC5CCOCC5)c([N+](=O)[O-])c4)c(Oc4cnc5[nH]ccc5c4)c3)CC2)=C(c2ccc(Cl)cc2)C1 + Cc1cncc(-c2nc(NCCc3c[nH]c4ccccc34)c3ncn(C(C)C)c3n2)c1 turned out to be 123

Lab book: viability, T/C of CC1COCCN1c1cc(C2(S(C)(=N)=O)CC2)nc(-c2ccnc3[nH]ccc23)n1 (configuration not stated) + CC(CO)NC(=O)c1cc(-c2ccc(Cl)cc2)nn(-c2cnn(C)c2)c1=O noted as 95.9

Record Nc1ccccc1NC(=O)c1ccc(CNC(=O)OCc2cccnc2)cc1 + Cc1cncc(-c2nc(NCCc3c[nH]c4ccccc34)c3ncn(C(C)C)c3n2)c1 . Reported viability, T/C: 89.6

Lookup result for NS(=O)(=O)OCC1CC(n2ccc3c(NC4CCc5ccccc54)ncnc32)CC1O (configuration not stated) + Cc1ccccc1N=Nc1ccc(NC(=O)c2ccnn2C)c(C)c1 ; measured viability, T/C: 83.4

viability, T/C in this record for O=C(C=Cc1cccc(S(=O)(=O)Nc2ccccc2)c1)NO + CC(CO)NC(=O)c1cc(-c2ccc(Cl)cc2)nn(-c2cnn(C)c2)c1=O : 93.9

This collection of values is drawn from PubChem BioAssay AID1918995.
